- EXPERIMENTAL_TARGET: Akt2 (Homo sapiens)
- Construct: unspecified tag, removed (detagged) (cleaved yes); purchased SignalChem and Proteros (Akt2); Merck Millipore (PDK1) 14-452 (PDK1); none given for Akt2
- Sequence (P31751 whole entry): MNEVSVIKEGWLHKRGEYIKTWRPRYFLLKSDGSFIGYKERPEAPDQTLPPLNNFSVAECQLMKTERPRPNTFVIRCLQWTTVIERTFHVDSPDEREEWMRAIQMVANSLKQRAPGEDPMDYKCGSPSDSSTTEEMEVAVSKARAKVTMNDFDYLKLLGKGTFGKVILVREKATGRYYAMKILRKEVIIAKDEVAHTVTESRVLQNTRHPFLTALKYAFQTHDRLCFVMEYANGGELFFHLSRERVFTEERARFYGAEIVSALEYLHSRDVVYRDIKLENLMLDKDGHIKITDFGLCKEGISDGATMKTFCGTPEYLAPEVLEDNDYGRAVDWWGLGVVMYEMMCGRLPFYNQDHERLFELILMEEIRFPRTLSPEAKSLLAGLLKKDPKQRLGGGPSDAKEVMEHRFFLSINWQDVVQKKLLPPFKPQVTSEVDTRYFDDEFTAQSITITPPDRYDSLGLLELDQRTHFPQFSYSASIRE
- EXPERIMENTAL_DETAILS: Akt activation assay (PDK1-mediated activation, LANCE Ultra crosstide TR-FRET), Akt2
- Format: biochemical
- RUN_PARAMETERS: read-out: Biological Assay 1 IC50 (nM) Akt2
QUANTITY_KIND: IC50 (nM)

Worked examples follow.
COC(=O)N(C)[C@H]1CC[C@H](CC(=O)Nc2cc(-c3ccsc3)c(-c3ccc([C@]4(N)C[C@](C)(O)C4)cc3)nn2)CC1 [Example 84]: 140
CC(=O)N(C)[C@H]1CC[C@H](CC(=O)Nc2cc(-c3ccccc3)c(-c3ccc(C4(N)CC(F)(F)C4)cc3)nn2)CC1 [Example 73]: 540
CN([C@H]1CC[C@H](CC(=O)Nc2cnc(-c3ccc(C4(N)CCC4)cc3)c(-c3ccccc3F)c2)CC1)S(C)(=O)=O [Example A16]: 260
CCCC(=O)N[C@H]1CC[C@H](CC(=O)Nc2cnc(-c3ccc(C4(N)CC4)cc3)c(-c3ccccc3)c2)CC1 [Example A41]: 370
CC(C)C(=O)N(C)[C@H]1CC[C@H](CC(=O)Nc2cc(-c3ccccc3)c(-c3ccc(C4(N)CC4)cc3)nn2)CC1 [Example A92]: 1200

(1) CC(=O)N(C)[C@H]1CC[C@H](CC(=O)Nc2cc(-c3ccccc3F)c(-c3ccc([C@]4(N)C[C@](C)(O)C4)cc3)cn2)CC1 [Example 94]
(2) CC(C)(N)c1ccc(-c2ncc(NC(=O)C[C@H]3CC[C@H](NC(=O)CC4CC4)CC3)cc2-c2ccccc2)cc1 [Example 29]
Req: Quick check, higher IC50 between 1 and 2 ? Which one? Tell me its label.
Resp: 2
(2: 2200 nM, 1: 120 nM)

(I) COC(=O)N(C)[C@H]1CC[C@H](C(C)C(=O)Nc2cnc(-c3ccc(C4(N)CCC4)cc3)c(-c3ccccc3)c2)CC1 (relative stereo) [Example 54]
(II) CN(C(=O)C1CCC1)[C@H]1CC[C@H](CC(=O)Nc2cc(-c3ccccc3)c(-c3ccc([C@]4(N)C[C@](C)(O)C4)cc3)cn2)CC1 [Example A76]
(III) CCC(=O)N(CC)[C@H]1CC[C@H](CC(=O)Nc2cc(-c3ccccc3)c(-c3ccc([C@]4(N)C[C@](C)(O)C4)cc3)cn2)CC1 [Example 115]
(IV) CC(C)C(=O)N(C)[C@H]1CC[C@H](CC(=O)Nc2cc(-c3ccccc3)c(-c3ccc([C@]4(N)C[C@](C)(O)C4)cc3)nn2)CC1 [Example A79]
Req: Sort entries by IC50 from minimum to maximum value. A complete answer lists every label in the requested sequence.
Resp: IV, II, III, I

(P) CCC(=O)N(C)[C@H]1CC[C@H](CC(=O)Nc2cnc(-c3ccc(C(C)(C)N)cc3)c(-c3ccccc3)c2)CC1 [Example A95]
(Q) COC(=O)N(C)[C@H]1CC[C@H](CC(=O)Nc2cc(-c3ccccc3)c(-c3ccc(C4(N)CC4)cc3)nn2)CC1 [Example A77]
(R) C[C@]1(O)C[C@@](N)(c2ccc(-c3cnc(NC(=O)C[C@H]4CC[C@H](N5CCOC5=O)CC4)cc3-c3ccccc3)cc2)C1 [Example A57]
Req: Returns the items ordered by IC50, from maximum to minimum. A complete answer lists every label in the requested sequence.
Resp: P, Q, R

(1) CCC(=O)N(C)[C@H]1CC[C@H](CC(=O)Nc2cc(-c3ccccc3)c(-c3ccc(C(C)(C)N)cc3)nn2)CC1 [Example A84]
(2) COC(=O)N(C)[C@H]1CC[C@H](CC(=O)Nc2cnc(-c3ccc([C@]4(N)C[C@](C)(O)C4)cc3)c(-c3ccccc3)c2)CC1 [Example 44]
(3) C[C@@H](N)c1ccc(-c2ncc(NC(=O)C[C@H]3CC[C@H](NC(=O)C(C)(C)C(F)(F)F)CC3)cc2-c2ccccc2)cc1 [Example A11]
(4) CC(C)(C)C(=O)N[C@H]1CC[C@H](CC(=O)Nc2cnc(-c3ccc(C4(N)CC4)cc3)c(-c3ccccc3)c2)CC1 [Example A43]
Req: Sort entries by IC50 from minimum to maximum value. A complete answer lists every label in the requested sequence.
Resp: 2, 4, 3, 1
(2: 110 nM, 4: 520 nM, 3: 1500 nM, 1: 4000 nM)

(P) CCC(=O)N(C)[C@H]1CC[C@H](CC(=O)Nc2cnc(-c3ccc(C4(N)CC4)c(F)c3)c(-c3ccccc3)c2)CC1 [Example A89]
(Q) CC(=O)N[C@H]1CC[C@H](CC(=O)Nc2cnc(-c3ccc(C4(N)CCC4)cc3)c(-c3ccccc3)c2)CC1 [Example A38]
(R) CCC(=O)N(C)[C@H]1CC[C@H](CC(=O)Nc2cc(-c3ccsc3)c(-c3ccc([C@]4(N)C[C@H](F)C4)cc3)nn2)CC1 [Example 125]
Req: Sort entries by IC50 from minimum to maximum value. A complete answer lists every label in the requested sequence.
Resp: Q, R, P
(Q: 190 nM, R: 1500 nM, P: 4000 nM)

(A) CC1(C(=O)N[C@H]2CC[C@H](CC(=O)Nc3cnc(-c4ccc(C(C)(C)N)cc4)c(-c4ccccc4)c3)CC2)CC1 [Example A21]
(B) CCOC(=O)N(C)[C@H]1CC[C@H](CC(=O)Nc2cc(-c3ccccc3)c(-c3ccc([C@]4(N)C[C@](C)(O)C4)cc3)nn2)CC1 [Example A80]
Req: Which of these two has the smaller recorded IC50: A or B ? Which one? Tell me its label.
Resp: B
(B: 74 nM, A: 4100 nM)
